Please respond with reported Response Recovered (%) for every item in the list.
Target: NMDA receptor GRIN1/GRIN2B (NR2B) expressed in HEK293 cells (Homo sapiens, UniProt Q13224)
Construct: host or cells: HEK293
Sequence (Q13224 27-1484, other chains not shown): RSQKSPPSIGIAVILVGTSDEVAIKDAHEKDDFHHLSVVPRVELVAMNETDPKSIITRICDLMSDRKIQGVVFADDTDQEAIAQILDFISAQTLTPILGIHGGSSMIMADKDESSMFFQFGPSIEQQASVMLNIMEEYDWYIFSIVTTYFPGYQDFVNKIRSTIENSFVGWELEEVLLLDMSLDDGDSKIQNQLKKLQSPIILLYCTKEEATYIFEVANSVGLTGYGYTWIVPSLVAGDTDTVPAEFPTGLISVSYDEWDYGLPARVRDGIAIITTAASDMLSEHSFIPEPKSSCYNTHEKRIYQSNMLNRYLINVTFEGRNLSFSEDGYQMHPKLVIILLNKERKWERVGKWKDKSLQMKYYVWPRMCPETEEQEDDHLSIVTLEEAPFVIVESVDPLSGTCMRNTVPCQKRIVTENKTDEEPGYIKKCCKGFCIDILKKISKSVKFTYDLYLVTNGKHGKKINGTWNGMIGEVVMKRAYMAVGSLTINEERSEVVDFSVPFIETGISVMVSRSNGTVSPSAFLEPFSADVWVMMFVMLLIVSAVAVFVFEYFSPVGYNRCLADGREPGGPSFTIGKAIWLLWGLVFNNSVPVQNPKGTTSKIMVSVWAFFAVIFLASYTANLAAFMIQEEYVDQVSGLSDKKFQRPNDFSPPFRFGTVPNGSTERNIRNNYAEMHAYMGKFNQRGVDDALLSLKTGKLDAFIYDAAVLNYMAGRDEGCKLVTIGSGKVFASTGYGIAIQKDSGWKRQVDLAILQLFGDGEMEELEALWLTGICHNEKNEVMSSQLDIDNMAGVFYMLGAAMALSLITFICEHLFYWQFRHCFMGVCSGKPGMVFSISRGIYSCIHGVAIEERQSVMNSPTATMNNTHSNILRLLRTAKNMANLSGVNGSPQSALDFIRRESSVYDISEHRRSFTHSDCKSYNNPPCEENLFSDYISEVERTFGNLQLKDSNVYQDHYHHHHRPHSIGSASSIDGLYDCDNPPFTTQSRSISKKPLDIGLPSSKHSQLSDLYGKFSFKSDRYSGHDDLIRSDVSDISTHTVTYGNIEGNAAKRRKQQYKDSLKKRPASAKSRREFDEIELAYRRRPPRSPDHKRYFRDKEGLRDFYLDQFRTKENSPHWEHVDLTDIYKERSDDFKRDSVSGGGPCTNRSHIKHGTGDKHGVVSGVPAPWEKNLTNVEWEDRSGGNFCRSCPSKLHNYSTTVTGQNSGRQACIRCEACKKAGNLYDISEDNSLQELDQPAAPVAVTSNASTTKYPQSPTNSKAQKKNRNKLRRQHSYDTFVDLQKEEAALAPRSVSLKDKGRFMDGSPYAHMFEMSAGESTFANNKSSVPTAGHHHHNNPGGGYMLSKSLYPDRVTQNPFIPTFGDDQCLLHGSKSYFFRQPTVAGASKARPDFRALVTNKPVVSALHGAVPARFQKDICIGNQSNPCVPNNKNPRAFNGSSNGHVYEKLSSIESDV
Assay: Reversal of Ro 25-6981-mediated suppression of the Ca2+ response (fluo-8 fluorescence, FDSS) in HEK293 cells expressing GRIN1 and GRIN2B
Assay type: cell-based
Details: % reversal=100*(R−Rneg)/(Rpos−Rneg) of Ro 25-6981 suppression of co-agonist (glutamate/glycine) Ca2+ response, 10 min pre-incubation, compound concentration not given
Answers are plain numbers, in %.

// known answers, use as guide
O=C(On1cnc2scc(-c3ccc(Cl)c(F)c3)c2c1=O)N1CCCC1; 32
O=C(Nn1cnc2scc(-c3ccc(F)c(Cl)c3)c2c1=O)N1CCCC1; 10
O=C(Cn1cnc2scc(-c3cnc(Cl)c(Cl)c3)c2c1=O)N1CCC(F)C1 (stereo not drawn); 10
O=C(COn1cnc2scc(-c3ccc(F)c(Cl)c3)c2c1=O)N1CCCC1; −1
C[C@H]1CCCN1C(=O)Cn1cnc2scc(-c3ccc(Cl)cc3)c2c1=O; 2
O=C(Cn1cnc2sc(-c3ccc(Cl)cc3)cc2c1=O)N1CCCC1; 1

Report Response Recovered (%) for each item below.
1. O=C(Cn1cnc2scc(-c3cncc(F)c3)c2c1=O)N1CCCC1
2. O=C(Cn1cnc2scc(-c3cnc(Cl)c(Cl)c3)c2c1=O)N1CC(F)C(F)C1 (stereo not drawn)
3. O=C(Cn1cnc2scc(-c3ccc(Cl)c(C(F)(F)F)c3)c2c1=O)N1CCCC1

3
15
76

====

Target: NMDA receptor GRIN1/GRIN2B (NR2B) expressed in HEK293 cells (Homo sapiens)
Construct: host or cells: HEK293
Assay: Reversal of Ro 25-6981-mediated suppression of the Ca2+ response (fluo-8 fluorescence, FDSS) in HEK293 cells expressing GRIN1 and GRIN2B
Type: cell-based
Conditions: % reversal=100*(R−Rneg)/(Rpos−Rneg) of Ro 25-6981 suppression of co-agonist (glutamate/glycine) Ca2+ response, 10 min pre-incubation, compound concentration not given
Protocol: HEK293 cells with constructs conferring stable expression of the GRIN1 gene and tetracycline-inducible expression of the GRIN2B gene (Chantest, Cleveland, Ohio) are grown to ˜75% confluence in tissue culture flasks at 37° C., 5% CO2. […] Harvested cells are spun down, washed twice in Ca^2+- and Mg^2+-free Hank's Balanced Salt Solution with 20 mM HEPES and 10 mM glucose, pH 7.4 (HHnoCa solution), and counted with viability assessed using Trypan Blue. […]
Please assign N whenever Response Recovered (%) is at or above 30%, and Y whenever it is below.

O=C(Cn1cnc2scc(-c3ccc(Cl)c(F)c3)c2c1=O)N1CCC(F)C1 (stereo not shown); N
O=C(Cn1cnc2scc(-c3ccc(Cl)cc3)c2c1=O)N1CCCCC1; Y

Here's an entry: O=C(Cn1cnc2scc(-c3ccc(F)c(Cl)c3)c2c1=O)N1CCCC1 . Is its Response Recovered (%) below 30%?
N

====

Molecular target: NMDA receptor GRIN1/GRIN2B (NR2B) expressed in HEK293 cells (Homo sapiens)
Construct: host or cells: HEK293
Assay: Reversal of Ro 25-6981-mediated suppression of the Ca2+ response (fluo-8 fluorescence, FDSS) in HEK293 cells expressing GRIN1 and GRIN2B
Format: cell-based
Conditions: % reversal=100*(R−Rneg)/(Rpos−Rneg) of Ro 25-6981 suppression of co-agonist (glutamate/glycine) Ca2+ response, 10 min pre-incubation, compound concentration not given
Please respond with reported Response Recovered (%) for every item in the list.

// known answers, use as guide
O=C(Cn1cnc2scc(-c3ccc(C(F)(F)F)cc3)c2c1=O)N1CCCCC1; 1%
O=C(Cn1cnc2scc(-c3ccc(C(F)(F)F)cc3Cl)c2c1=O)N1CCCC1; 8%
O=C(Cn1cnc2scc(-c3ccc(Cl)cc3)c2c1=O)N1CCCC1C(F)(F)F (centres unmarked); 8%
CC(C(=O)N1CCCC1)n1cnc2scc(-c3ccc(Cl)c(C(F)(F)F)c3)c2c1=O (centres unmarked); 0%

Report Response Recovered (%) for each item below.
1. O=C(Cn1cnc2scc(-c3ccc(F)c(F)c3)c2c1=O)N1CCCC1
2. CCN(CC)C(=O)Cn1cnc2scc(-c3ccc(Cl)cc3)c2c1=O
3. O=C(Cn1cnc2scc(-c3cccc(F)c3)c2c1=O)N1CCCC1
4. O=c1c2c(-c3ccc(Cl)c(C(F)(F)F)c3)csc2ncn1/N=C/N1CCCC1

1: 3%; 2: 5%; 3: 3%; 4: 18%

Report Response Recovered (%) for each item below.
1. O=C(Cn1cnc2scc(-c3ccc(Cl)cc3)c2c1=O)N1CCOCC1
2. Cc1sc2ncn(CC(=O)N3CCCC3)c(=O)c2c1-c1ccc(F)c(C(F)(F)F)c1
3. O=C(Cn1cnc2sc(-c3ccc(Cl)cc3)cc2c1=O)NC1CC1
4. O=C(Cn1cnc2scc(-c3ccc(F)cc3Cl)c2c1=O)N1CCCC1
5. O=C(Cn1cnc2scc(-c3ccc(C(F)(F)F)cc3F)c2c1=O)N1CCCC1
6. O=C(CCn1cnc2scc(-c3ccc(Cl)c(C(F)(F)F)c3)c2c1=O)N1CCC(F)C1 (centres unmarked)
7. Cc1nc2scc(-c3ccc(Cl)cc3)c2c(=O)n1CC(=O)N1CCCC1C(F)(F)F (centres unmarked)

1. 3%
2. 40%
3. 34%
4. 5%
5. 10%
6. 2%
7. 3%

====

Biological target: NMDA receptor GRIN1/GRIN2B (NR2B) expressed in HEK293 cells (Homo sapiens, UniProt Q13224)
Construct: host or cells: HEK293
Assay: Reversal of Ro 25-6981-mediated suppression of the Ca2+ response (fluo-8 fluorescence, FDSS) in HEK293 cells expressing GRIN1 and GRIN2B
Assay type: cell-based
Conditions: % reversal=100*(R−Rneg)/(Rpos−Rneg) of Ro 25-6981 suppression of co-agonist (glutamate/glycine) Ca2+ response, 10 min pre-incubation, compound concentration not given
experimental endpoint: Response Recovered (%)
One number for each entry, in %.

O=C(Cn1cnc2scc(-c3ccc(Cl)cc3)c2c1=O)N1CCC(F)(F)CC1; 2
Cc1sc2ncn(CC(=O)N3CCCC3)c(=O)c2c1-c1ccc(Cl)cc1; 17
O=C(Cn1cnc2scc(-c3cnc(Cl)c(C(F)(F)F)c3)c2c1=O)N1CCC(F)C1 (centres unmarked); 22
Cc1sc2ncn(CC(=O)N3CCCC3)c(=O)c2c1-c1ccc(Cl)c(Cl)c1; 60
O=C(CCn1cnc2scc(-c3ccc(Cl)c(C(F)(F)F)c3)c2c1=O)N1CCCC1C(F)(F)F (centres unmarked); −2
Cc1cc(C(F)(F)F)ccc1-c1csc2ncn(CC(=O)N3CCCC3)c(=O)c12; 9

Report Response Recovered (%) for each item below.
1. O=C(Cn1cnc2scc(-c3ccc(Cl)c(C(F)(F)F)c3)c2c1=O)N1CC[C@H](F)C1
2. O=C(Cn1cnc2scc(-c3ccc(Cl)c(C(F)(F)F)c3)c2c1=O)N1CC[C@@H](F)C1

[87, 117]

====

Please respond with reported Response Recovered (%) for every item in the list.
Biological target: NMDA receptor GRIN1/GRIN2B (NR2B) expressed in HEK293 cells (Homo sapiens)
Construct: host or cells: HEK293
Experiment: Reversal of Ro 25-6981-mediated suppression of the Ca2+ response (fluo-8 fluorescence, FDSS) in HEK293 cells expressing GRIN1 and GRIN2B
Assay type: cell-based
Details: % reversal=100*(R−Rneg)/(Rpos−Rneg) of Ro 25-6981 suppression of co-agonist (glutamate/glycine) Ca2+ response, 10 min pre-incubation, compound concentration not given
One number for each entry, in %.

CCOC(=O)Cn1c(C)nc2scc(-c3ccc(Cl)cc3)c2c1=O [Example 97]; 2
O=C(Cn1cnc2scc(-c3cnc(Cl)c(C(F)(F)F)c3)c2c1=O)N1CC(F)C(F)C1 (stereo not drawn) [Example 71]; 25
O=C(Cn1cnc2scc(-c3cc(C(F)(F)F)cc(C(F)(F)F)c3)c2c1=O)N1CCCC1 [Example 48]; −1

Report Response Recovered (%) for each item below.
1. O=C(Cn1cnc2scc(-c3ccc(Cl)c(Cl)c3)c2c1=O)N1CC[C@H](F)C1 [Example 69]
2. O=C(Cn1cnc2scc(-c3ccc(Cl)c(Cl)c3)c2c1=O)N1C[C@@H](F)[C@@H](F)C1 [Example 67]
3. O=C(Cn1cnc2sc(-c3ccc(Cl)cc3)cc2c1=O)N1CCCCC1 [Example 75]
4. O=C(Cn1cnc2scc(-c3ccc(Cl)cc3)c2c1=O)N1CCC(O)(c2ccccc2)CC1 [Example 15]
5. CC1CCCC(C)N1C(=O)Cn1cnc2scc(-c3ccc(Cl)cc3)c2c1=O (stereo not drawn) [Example 12]
6. O=C(Cn1cnc2scc(-c3ccc(Cl)cc3)c2c1=O)N1CCC(O)C1 (stereo not drawn) [Example 6]

1: 94; 2: 84; 3: 0; 4: −1; 5: −1; 6: 3

Report Response Recovered (%) for each item below.
1. O=C(Cn1cnc2scc(-c3ccc(F)c(Cl)c3)c2c1=O)N1CCC(F)C1 (stereo not drawn) [Example 58]
2. O=C(Cn1cnc2scc(-c3ccc(C(F)(F)F)cc3)c2c1=O)N1CCCC1 [Example 17]
3. O=C(Cn1cnc2scc(-c3ccc(Cl)c(F)c3)c2c1=O)N1CCCC1 [Example 21]

1: 65; 2: 11; 3: 19
